- study target: T1, human PD-L2/B7-DC protein, with His tag (human, UniProt Q9BQ51 20-219, limits assumed)
- T1 construct: Bought protein
- T1 sequence (looked up): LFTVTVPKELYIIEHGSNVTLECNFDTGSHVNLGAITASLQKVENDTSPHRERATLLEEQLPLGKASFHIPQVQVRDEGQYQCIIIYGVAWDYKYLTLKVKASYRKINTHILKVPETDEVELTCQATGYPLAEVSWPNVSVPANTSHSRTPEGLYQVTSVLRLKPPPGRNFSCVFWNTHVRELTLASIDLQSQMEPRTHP
- assay procedure: SPR (Biacore T200), antibody captured on Protein A chip, response at 200 nM antigen
experimental readout: Response (RU)
Use RU as the unit, but write only the number.

The measured Response (RU) associated with 10F5 (antibody, human IgG1, kappa, V domains shown, also called Ab10F5) VH: QVQLVQSGAEVKKPGSSVKVSCKASGGTFSSQAISWVRQAPGQGLEWMGRIIPMLGIGDYAQSFQGRVTITADKSTSTAYLEVSSLGSEDTAVYYCAREGIAALGTNYYYGMDVWGQGTAVTVSS VL: EIVMTQSPSSVSASVGDRVTITCRASQGISRWLAWYQQKPGKAPKLLIYVASSLQSGVPSRFSGSGSGTDFTLTISSLQPEDFATYYCQQANSFPFTFGPGTKVDIRR reads 0
